study_system: FKBP12 (Homo sapiens, UniProt P62942)
Sequence (P62942 whole entry, species assumed): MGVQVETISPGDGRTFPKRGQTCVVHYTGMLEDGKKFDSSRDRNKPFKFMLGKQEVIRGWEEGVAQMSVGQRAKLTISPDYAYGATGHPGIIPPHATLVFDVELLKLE
pKi: −log10 of the molar value.
endpoint: pKi

INSERT INTO assay_data (compound, study_system, val) VALUES
  ('CC(C)(C)C(=O)C(=O)N1CCC[C@H]1C(=O)CCCCc1ccccc1', 'FKBP12 (Homo sapiens, UniProt P62942)', 7.07),
  ('CCC(C)(C)C(=O)C(=O)N1CCCC1C(=O)SCc1csc2ccccc12 (stereo not shown)', 'FKBP12 (Homo sapiens, UniProt P62942)', 6.52),
  ('CCC(C)(C)C(=O)C(=O)N1CCCC[C@H]1C(=O)SCC(c1ccccc1)c1ccccc1', 'FKBP12 (Homo sapiens, UniProt P62942)', 5.87),
  ('CCC(C)(C)C(=O)C(=O)N1CCC[C@H]1C(=O)CCCCc1ccccc1', 'FKBP12 (Homo sapiens, UniProt P62942)', 7.51);
